# assay-protocol: in vitro
# assay-conditions: human
endpoint-name: IC50 (nM)
The reply should be a number in nM, with the unit left off.

Which IC50 value belongs to COc1cc(C(NC2=NC(=O)C(CC(=O)Nc3ccc(C(=O)O)cc3)S2)c2c(O)[nH]c(=O)[nH]c2=O)ccc1O (stereo not shown) [Compound 7] ?
1670

---

# Test system: SARS-CoV-2 strain NRC-03-nhCoV
# assay-protocol: microbe, parasite or virus in culture
# Type: cell-based
# assay-conditions: Severe acute respiratory syndrome coronavirus 2, Vero C1008; Vero-E6 cells, strain NRC-03-nhCoV, 72 h; read-out: IC50 inhibition activity against SARS-CoV-2
endpoint-name: pIC50
Please express pIC50 as -log10 of the molar concentration.

Value wanted: pIC50 (SARS-CoV-2 strain NRC-03-nhCoV) of entry N=C(N/N=C/c1ccccc1O)c1nonc1NCNc1nonc1C(=N)N/N=C/c1ccccc1O [Compound 13]
6.96

---

# test-system: human furin protease (Homo sapiens)
# Construct: purchased BPS Bioscience 78040
# Sequence (P09958 108-794): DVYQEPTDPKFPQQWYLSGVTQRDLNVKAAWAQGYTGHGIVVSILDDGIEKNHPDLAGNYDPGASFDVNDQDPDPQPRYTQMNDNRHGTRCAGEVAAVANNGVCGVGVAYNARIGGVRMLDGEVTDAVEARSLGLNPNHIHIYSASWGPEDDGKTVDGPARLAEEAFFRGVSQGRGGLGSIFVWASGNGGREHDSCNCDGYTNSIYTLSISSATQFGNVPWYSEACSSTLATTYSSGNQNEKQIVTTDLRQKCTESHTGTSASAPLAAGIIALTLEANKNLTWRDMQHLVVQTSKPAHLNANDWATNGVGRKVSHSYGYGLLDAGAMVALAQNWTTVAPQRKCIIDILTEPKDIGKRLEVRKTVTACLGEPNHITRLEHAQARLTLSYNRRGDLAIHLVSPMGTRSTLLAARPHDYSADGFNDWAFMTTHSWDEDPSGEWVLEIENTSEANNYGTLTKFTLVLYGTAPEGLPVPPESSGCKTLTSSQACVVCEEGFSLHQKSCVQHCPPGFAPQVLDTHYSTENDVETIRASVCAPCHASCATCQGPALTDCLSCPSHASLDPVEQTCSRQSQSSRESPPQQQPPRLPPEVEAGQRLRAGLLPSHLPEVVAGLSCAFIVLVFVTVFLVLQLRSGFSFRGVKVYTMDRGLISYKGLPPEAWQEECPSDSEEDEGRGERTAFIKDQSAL
# assay-protocol: Furin protease assay
# Format: biochemical
endpoint-name: IC50 (µM)
Note: unit µM is implicit; provide only the numeric part.

Fill in: IC50 of N=C(N/N=C/c1ccncc1)c1nonc1NCNc1nonc1C(=N)N/N=C/c1ccncc1 [Compound 13M] is ___
86.2

---

# assay-protocol: in vitro
# assay-conditions: human
endpoint-name: IC50 at 24 h
For clarity, give the value followed by its unit.

Using the record for "N=C(N/N=C/c1ccccc1O)c1nonc1NCNc1nonc1C(=N)N/N=C/c1ccccc1O" , report its IC50 at 24 h.
0.41 µM

Values were extracted from patent US11608331B2.
